# Test system: CD2F1 mice, L1210 leukemia ip, survival T/C
# protocolNotes: NCI In Vivo Anticancer Drug Screen. Data for tumor model L1210 Leukemia (intraperitoneal) in CD2F1 (CDF1) mice
# conditionSet: endpoint: mean survival time; dose: 300.0 mg/kg/injection; schedule: Q01DX001 (ip); vehicle: saline; higher = longer survival
Inconclusive results and toxic doses are left out.
observedProperty: T/C

Need T/C, item CC(Cc1ccccc1)NNC(C)Cc1ccccc1 (stereo not given) 97 % of control

Need T/C, item Cc1ccnc(N/C=C/c2cc[n+](C)cc2)c1 114 % of control

Need T/C, item CC(=O)C(N=Nc1cccc2c1C(=O)c1ccccc1C2=O)C(=O)Nc1ccccc1C (stereo not given) 96 % of control

Need T/C, item Cc1cc(=O)[nH]c(-n2nc(N)nc2N)n1 101 % of control

Need T/C, item CCNCc1ccc2c(c1)OCO2 103 % of control
